Target: HIV Env, isolate T278-50 (HIV)
Experiment: cell-based or functional assay
quantity: IC80 (µg/ml) with constrains

Example cases with answers are listed next.
binder	observed_result
PGDM1400 (antibody, V domains shown) VH: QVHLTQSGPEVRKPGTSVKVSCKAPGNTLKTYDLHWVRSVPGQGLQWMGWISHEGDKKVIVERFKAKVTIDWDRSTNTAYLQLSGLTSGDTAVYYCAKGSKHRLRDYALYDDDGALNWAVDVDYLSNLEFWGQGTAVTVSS VL: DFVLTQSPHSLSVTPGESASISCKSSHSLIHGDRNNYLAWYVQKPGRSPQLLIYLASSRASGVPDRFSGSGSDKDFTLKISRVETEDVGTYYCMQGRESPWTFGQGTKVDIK	21.7 µg/mL
ePGDM9 (antibody, V domains shown) VH: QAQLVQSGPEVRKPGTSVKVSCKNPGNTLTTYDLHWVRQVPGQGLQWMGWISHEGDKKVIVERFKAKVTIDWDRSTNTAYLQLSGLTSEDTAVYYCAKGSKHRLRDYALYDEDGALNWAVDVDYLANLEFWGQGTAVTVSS VL: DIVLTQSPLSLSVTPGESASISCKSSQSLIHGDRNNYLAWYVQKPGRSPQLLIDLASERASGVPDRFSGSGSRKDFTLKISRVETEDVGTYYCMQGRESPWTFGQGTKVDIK	2.02 µg/mL
ePGDM5 (antibody, V domains shown) VH: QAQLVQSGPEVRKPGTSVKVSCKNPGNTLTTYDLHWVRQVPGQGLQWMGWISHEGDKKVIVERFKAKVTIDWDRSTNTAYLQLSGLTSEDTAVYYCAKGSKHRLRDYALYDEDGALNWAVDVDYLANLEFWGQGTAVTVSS VL: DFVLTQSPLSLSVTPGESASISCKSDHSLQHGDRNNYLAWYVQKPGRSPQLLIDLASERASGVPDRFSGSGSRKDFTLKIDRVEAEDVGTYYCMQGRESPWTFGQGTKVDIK	4.23 µg/mL

# next binder below
Enquiry: Could you tell me which IC80 (µg/ml) with constrains is on file for ePGDM13 (antibody, V domains shown) VH: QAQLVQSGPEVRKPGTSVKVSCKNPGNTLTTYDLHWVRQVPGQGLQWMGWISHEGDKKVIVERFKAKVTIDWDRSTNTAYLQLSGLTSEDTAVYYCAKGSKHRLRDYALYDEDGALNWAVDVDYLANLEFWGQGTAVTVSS VL: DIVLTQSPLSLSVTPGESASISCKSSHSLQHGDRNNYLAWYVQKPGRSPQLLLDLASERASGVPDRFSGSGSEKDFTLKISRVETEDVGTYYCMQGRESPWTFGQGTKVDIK ?
Return: 6.4 µg/mL
